Target: HLA-A*0101 (human)
Assay: iTopia affinity
quantity-measured: log10 of ED50 (log10 of the value in µM)
Hello, just confirming the data are log10 of ED50 with units of µM.

Worked set:
{"binder": "EIDEQRTKY [cdr2 439-447 EIDEQRTKY]", "log10 of ED50": 1.49}
{"binder": "DTQYSALKV [cdr2 350-358 DTQYSALKV]", "log10 of ED50": 1.69}
{"binder": "SFACLKELY [cdr2 157-165 SFACLKELY]", "log10 of ED50": 0.84}
{"binder": "LLEEMFLTV [cdr2 290-298 LLEEMFLTV]", "log10 of ED50": 1.32}

If you can, please state the reported log10 of ED50 value of SSPTTPPEY [cdr2 414-422 SSPTTPPEY] .
2.11
